# target-entity: NLRP3 (Homo sapiens)
# Sequence (Q96P20 whole entry): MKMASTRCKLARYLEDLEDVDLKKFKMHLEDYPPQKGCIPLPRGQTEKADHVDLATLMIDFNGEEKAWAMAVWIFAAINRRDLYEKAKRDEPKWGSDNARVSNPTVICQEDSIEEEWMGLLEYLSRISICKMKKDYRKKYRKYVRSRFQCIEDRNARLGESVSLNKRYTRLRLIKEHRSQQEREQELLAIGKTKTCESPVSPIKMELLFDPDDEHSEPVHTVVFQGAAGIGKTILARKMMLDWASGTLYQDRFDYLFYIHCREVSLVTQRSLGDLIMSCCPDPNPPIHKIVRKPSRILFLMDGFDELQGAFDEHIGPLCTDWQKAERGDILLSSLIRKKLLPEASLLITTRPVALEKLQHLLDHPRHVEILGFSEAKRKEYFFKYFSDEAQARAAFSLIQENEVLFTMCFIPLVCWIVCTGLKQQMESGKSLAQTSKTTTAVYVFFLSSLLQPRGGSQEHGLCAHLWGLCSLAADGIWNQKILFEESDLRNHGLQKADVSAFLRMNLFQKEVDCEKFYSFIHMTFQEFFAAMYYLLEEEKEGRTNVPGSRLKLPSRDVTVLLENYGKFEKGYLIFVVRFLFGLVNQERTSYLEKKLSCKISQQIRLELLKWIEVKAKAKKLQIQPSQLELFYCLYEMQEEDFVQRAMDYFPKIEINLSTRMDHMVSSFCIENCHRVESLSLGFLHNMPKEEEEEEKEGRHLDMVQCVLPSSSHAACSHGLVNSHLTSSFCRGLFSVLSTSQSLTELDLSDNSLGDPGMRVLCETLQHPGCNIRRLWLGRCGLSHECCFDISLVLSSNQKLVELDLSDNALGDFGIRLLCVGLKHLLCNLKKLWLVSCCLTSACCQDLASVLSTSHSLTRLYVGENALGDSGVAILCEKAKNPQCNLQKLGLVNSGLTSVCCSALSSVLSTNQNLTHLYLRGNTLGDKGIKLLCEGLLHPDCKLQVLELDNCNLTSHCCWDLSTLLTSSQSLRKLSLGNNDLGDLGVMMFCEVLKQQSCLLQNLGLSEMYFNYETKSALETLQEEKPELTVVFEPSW
# assay: Human whole blood IL-1β release assay (LPS + nigericin, AlphaLisa)
# Format: cell-based
# Design: Human whole blood in Li-heparin tubes was obtained from healthy donors; from tissue; host or cells: human whole blood from healthy donors
# applied-conditions: NLRP3 inhibitory activity, 1 μg/ml LPS, 10 μM nigericin, read-out: HWB IC50
Structures can show the parent of a compound that is named as a salt.
experimental-endpoint: IC50

# count of solved cases: 4
compound | target-entity | IC50
CC(C)c1cc(F)cc(C(C)C)c1NC(=O)NS(=O)(=O)c1ccn(C(C)C)n1 [Example 77, sodium salt] | NLRP3 (Homo sapiens) | 5 to 10 µM
CC(C)n1ccc(S(=O)(=O)NC(=O)Nc2c3c(c(F)c4c2CCC4)CCC3)n1 [Example 61, sodium salt] | NLRP3 (Homo sapiens) | 0.5 to 1 µM
COC(C)(C)c1cc(S(=O)(=O)NC(=O)Nc2c(C(C)C)cc(Cl)cc2C(C)C)nn1C | NLRP3 (Homo sapiens) | 1 to 5 µM
CC(C)c1cc(F)cc2c1C(C(=O)NS(=O)(=O)c1ccn(C3CC3)n1)CCC2(C)C (centres unmarked) | NLRP3 (Homo sapiens) | 5 to 10 µM

Now turn to the next compound.
Give the measured IC50 for CC(C)c1cc(Cl)cc(C(C)C)c1NC(=O)NS(=O)(=O)c1cnn(CC(F)(F)F)c1
1 to 5 µM

###

# assay: PK in rats, oral administration
# Assay type: in vivo
# applied-conditions: male, Sprague-Dawley, 3 mg/kg, rat plasma
Where a name gives a salt, the structure may show the parent alone.
experimental-endpoint: Cmax (ng/mL)
// units = ng/mL; emit number, no label

Give the measured Cmax for COC(C)(C)c1cc(S(=O)(=O)NC(=O)Nc2c3c(cc4c2CCC4)CCC3)nn1C [Example 39]
1370

Give the measured Cmax for CCn1ccc(S(=O)(=O)NC(=O)Nc2c3c(cc4c2CCC4)CCC3)n1 [Example 45, sodium salt]
7900

###

# target-entity: NLRP3 (Homo sapiens)
# assay: THP-1 cells pyroptosis assay (LPS + nigericin, resazurin read-out)
# Assay type: cell-based
# Set-up: Seed THP-1 cells (25,000 cells/well) containing 1.0 μg/ml LPS; host or cells: THP-1 cells
# applied-conditions: NLRP3 inhibitory activity, 1 μg/ml LPS, 5 μM nigericin
pIC50: −log10 of the molar value. Counter-ions that a name gives are not always drawn.
experimental-endpoint: pIC50

# count of solved cases: 2
compound | pIC50
Cc1nn(C(C)C)cc1S(=O)(=O)NC(=O)Nc1c2c(cc3c1CCC3)CCC2 [Example 43, sodium salt] | 6.30 to 6.60
CC(C)(CN1CCCC1)n1ccc(S(=O)(=O)NC(=O)Nc2c3c(cc4c2CCC4)CCC3)n1 [Example 65, sodium salt] | > 6.60

Give the measured pIC50 for CC(C)n1ccc(S(=O)(=O)NC(=O)Nc2c3c(c(C#N)c4c2CCC4)CCC3)n1
6.30 to 6.60

Give the measured pIC50 for CC(C)c1cc(Cl)cc(C(C)C)c1NC(=O)NS(=O)(=O)c1cnn(CC(F)(F)F)c1
6.30 to 6.60

###

# target-entity: NLRP3 (Homo sapiens)
# assay: Human whole blood IL-1β release assay (LPS + nigericin, AlphaLisa)
# Format: cell-based
# Set-up: Human whole blood in Li-heparin tubes was obtained from healthy donors; from tissue; host or cells: human whole blood from healthy donors
# applied-conditions: NLRP3 inhibitory activity, 1 μg/ml LPS, 10 μM nigericin, read-out: HWB IC50
Form field: IC50 (one value per entry).

compound | target-entity | experimental-endpoint | value-observed
O=C(Nc1c2c(cc3c1CCC3)CCC2)NS(=O)(=O)c1ccn(C2CCC2)n1 [Example 59] | NLRP3 (Homo sapiens) | IC50 | 1000 to 5000 nM
Cn1nc(S(=O)(=O)NC(=O)Nc2c3c(cc4c2CCC4)CCC3)cc1CO [Example 84] | NLRP3 (Homo sapiens) | IC50 | 500 to 1000 nM
CC(O)c1cc(S(=O)(=O)NC(=O)Nc2c3c(cc4c2CCC4)CCC3)nn1C(C)C (stereo not shown) [Example 54] | NLRP3 (Homo sapiens) | IC50 | 500 to 1000 nM

Give the measured IC50 for CC(C)c1cc(C#N)cc(C(C)C)c1NC(=O)NS(=O)(=O)c1cc(C(C)(C)O)n(C)n1 [Example 71]
1000 to 5000 nM

Entry source: patent US20220106289A1
